The reported numbers originate from PubChem BioAssay AID2060607.

# Tested on: 876862-298-R-J1-PDC complex spheroids, viability % test/control;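 further: spheroids exposed to drugs for 7 days before readout; 100% = DMSO vehicle control wells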
# experiment description: Anticancer human tumor 876862-298-R-J1-PDC patient-derived endometrial carcinoma cell line growth inhibition [CLK]
# test conditions: second compound 10 µM; first compound 10 µM; hits give low values
endpoint name: viability, T/C (%)
Numeric answer only, unit % assumed.

Worked cases, viability, T/C given:
>>> value("CC1COCCN1c1cc(C2(S(C)(=N)=O)CC2)nc(-c2ccnc3[nH]ccc23)n1 (configuration not stated) + CN1CCN(c2cc(C(=O)Nc3cc4cc(-c5cnn(C)c5)ccc4cn3)ccn2)CC1")
0.74
>>> value("CCCS(=O)(=O)Nc1ccc(F)c(C(=O)c2c[nH]c3ncc(-c4ccc(Cl)cc4)cc23)c1F + CNC(=O)c1ccc(Nc2nc(OC3CCCC3)c3c(-c4ccc5nc(C)oc5c4)c[nH]c3n2)c(OC)c1")
10.4
>>> value("COc1ccc([C@@H](O)c2cc(-c3ncnc4cc(N5CCOCC5)ccc34)c(F)cc2Cl)nn1 + CNC(=O)c1ccc(Nc2nc(OC3CCCC3)c3c(-c4ccc5nc(C)oc5c4)c[nH]c3n2)c(OC)c1")
10.2
>>> value("CC(Nc1ccc2c(c1)OCCn1cc(N3C(=O)OCC3C(F)F)nc1-2)C(N)=O (configuration not stated) + CNC(=O)c1ccc(Nc2nc(OC3CCCC3)c3c(-c4ccc5nc(C)oc5c4)c[nH]c3n2)c(OC)c1")
9.25
>>> value("CC(CO)NC(=O)c1cc(-c2ccc(Cl)cc2)nn(-c2cnn(C)c2)c1=O (configuration not stated) + CN1CCN(c2cc(C(=O)Nc3cc4cc(-c5cnn(C)c5)ccc4cn3)ccn2)CC1")
2.5
>>> value("COc1ccc([C@@H](O)c2cc(-c3ncnc4cc(N5CCOCC5)ccc34)c(F)cc2Cl)nn1 + CN1CCN(c2cc(C(=O)Nc3cc4cc(-c5cnn(C)c5)ccc4cn3)ccn2)CC1")
1.69

Lookup: For the compound COc1cccc2c1C(=O)c1c(O)c3c(c(O)c1C2=O)CC(O)(C(=O)CO)CC3OC1CC(N)C(O)C(C)O1 (configuration not stated) + CN1CCN(c2cc(C(=O)Nc3cc4cc(-c5cnn(C)c5)ccc4cn3)ccn2)CC1 , what viability, T/C is on record?
Found: 1.61

Lookup: For the compound C=C(F)C(=O)N1CCN(c2nc(OCC3CCCN3C)nc3c2CCN(c2cccc4cccc(Cl)c24)C3)CC1CC#N (configuration not stated) + CNC(=O)c1ccc(Nc2nc(OC3CCCC3)c3c(-c4ccc5nc(C)oc5c4)c[nH]c3n2)c(OC)c1 , what viability, T/C is on record?
Found: 0.21

Lookup: For the compound CC(Nc1ccc2c(c1)OCCn1cc(N3C(=O)OCC3C(F)F)nc1-2)C(N)=O (configuration not stated) + CN1CCN(c2cc(C(=O)Nc3cc4cc(-c5cnn(C)c5)ccc4cn3)ccn2)CC1 , what viability, T/C is on record?
Found: 1.26

Lookup: For the compound CCCS(=O)(=O)Nc1ccc(F)c(C(=O)c2c[nH]c3ncc(-c4ccc(Cl)cc4)cc23)c1F + CN1CCN(c2cc(C(=O)Nc3cc4cc(-c5cnn(C)c5)ccc4cn3)ccn2)CC1 , what viability, T/C is on record?
Found: 2.22

Lookup: For the compound CC1(C)CCC(CN2CCN(c3ccc(C(=O)NS(=O)(=O)c4ccc(NCC5CCOCC5)c([N+](=O)[O-])c4)c(Oc4cnc5[nH]ccc5c4)c3)CC2)=C(c2ccc(Cl)cc2)C1 + CN1CCN(c2cc(C(=O)Nc3cc4cc(-c5cnn(C)c5)ccc4cn3)ccn2)CC1 , what viability, T/C is on record?
Found: 1.19

Lookup: For the compound COC1C=CCC(C)C(C)S(=O)(=O)NC(=O)c2ccc3c(c2)N(CC2CCC21)CC1(CCCc2cc(Cl)ccc21)CO3 (configuration not stated) + CNC(=O)c1ccc(Nc2nc(OC3CCCC3)c3c(-c4ccc5nc(C)oc5c4)c[nH]c3n2)c(OC)c1 , what viability, T/C is on record?
Found: 5.3

Lookup: For the compound Nc1ccn(C2OC(CO)C(O)C2(F)F)c(=O)n1 (configuration not stated) + CNC(=O)c1ccc(Nc2nc(OC3CCCC3)c3c(-c4ccc5nc(C)oc5c4)c[nH]c3n2)c(OC)c1 , what viability, T/C is on record?
Found: 3.96

Lookup: For the compound CC(=O)O[C@H]1C(=O)[C@@]2(C)[C@H]([C@H](OC(=O)c3ccccc3)[C@]3(O)C[C@H](OC(=O)[C@H](O)[C@@H](NC(=O)c4ccccc4)c4ccccc4)C(C)=C1C3(C)C)[C@]1(OC(C)=O)CO[C@@H]1C[C@@H]2O + CN1CCN(c2cc(C(=O)Nc3cc4cc(-c5cnn(C)c5)ccc4cn3)ccn2)CC1 , what viability, T/C is on record?
Found: 0.58

Lookup: For the compound O=c1[nH]cc(F)c(=O)[nH]1 + CN1CCN(c2cc(C(=O)Nc3cc4cc(-c5cnn(C)c5)ccc4cn3)ccn2)CC1 , what viability, T/C is on record?
Found: 0.73

Lookup: For the compound C=CC(=O)N1CCN(c2nc(=O)n(-c3c(C)ccnc3C(C)C)c3nc(-c4c(O)cccc4F)c(F)cc23)C(C)C1 (configuration not stated) + CN1CCN(c2cc(C(=O)Nc3cc4cc(-c5cnn(C)c5)ccc4cn3)ccn2)CC1 , what viability, T/C is on record?
Found: 2.42

Lookup: For the compound Nc1ccn(C2OC(CO)C(O)C2(F)F)c(=O)n1 (configuration not stated) + CN1CCN(c2cc(C(=O)Nc3cc4cc(-c5cnn(C)c5)ccc4cn3)ccn2)CC1 , what viability, T/C is on record?
Found: 0.72
